Taken from PubChem BioAssay (EPA / NIEHS).

# Read-out: Lipase C (LIPC), LIPC (gene 3990)
# assay info: LTEA_HepaRG_LIPC: Life Technologies and Expression Analysis (LTEA) Assay for Lipase C (LIPC) using HepaRG (AID 2283514)
# study conditions: mRNA level, 48 h; actives raise or lower the signal
Activity calls are given as the source filed them. How the source made its calls: active means hit-call score of the fitted dose curve at least 0.9, where 1 is the maximum; inactive means score below 0.9.
Select the matching outcome among label 1 = active, label 0 = inactive

Before answering, review these 5 worked examples.
CCc1cccc(C)c1N(C(=O)CCl)C(C)COC (stereo not drawn)	label 0
CCC(=NOC/C=C/Cl)C1=C(O)CC(C2CCOCC2)CC1=O (stereo not drawn)	label 0
CNC(=O)ON=C(C)SC	label 0
CC(C)=CC1C(C(=O)OCN2C(=O)C3=C(CCCC3)C2=O)C1(C)C (stereo not drawn)	label 0
COc1ccc(C(=CC(=O)N2CCOCC2)c2ccc(Cl)cc2)cc1OC	label 0

Task: Could you please tell me the result logged for N#CSCSC#N in this assay?
Result: label 1

Task: Could you please tell me the result logged for CCc1cnc(C2=NC(C)(C(C)C)C(=O)N2)c(C(=O)O)c1 (stereo not drawn) in this assay?
Result: label 0

Task: Could you please tell me the result logged for CNc1cnn(-c2cccc(C(F)(F)F)c2)c(=O)c1Cl in this assay?
Result: label 0

Task: Could you please tell me the result logged for CCOP(=S)(OCC)OC(Cl)C(Cl)(Cl)Cl (stereo not drawn) in this assay?
Result: label 0

Task: Could you please tell me the result logged for CC(C)N(C(=O)SCC(Cl)=C(Cl)Cl)C(C)C in this assay?
Result: label 0

Task: Could you please tell me the result logged for CCCCN(CC)c1c([N+](=O)[O-])cc(C(F)(F)F)cc1[N+](=O)[O-] in this assay?
Result: label 0

Task: Could you please tell me the result logged for CCCCSP(=O)(SCCCC)SCCCC in this assay?
Result: label 1

Task: Could you please tell me the result logged for COc1cccc(C(=O)NN(C(=O)c2cc(C)cc(C)c2)C(C)(C)C)c1C in this assay?
Result: label 0

Task: Could you please tell me the result logged for CCOP(=S)(OCC)Oc1ccc2c(C)c(Cl)c(=O)oc2c1 in this assay?
Result: label 1

Task: Could you please tell me the result logged for Cc1nn(-c2cc(NS(C)(=O)=O)c(Cl)cc2Cl)c(=O)n1C(F)F in this assay?
Result: label 0

Task: Could you please tell me the result logged for CCOP(=O)(SC(C)CC)N1CCSC1=O (stereo not drawn) in this assay?
Result: label 1

Task: Could you please tell me the result logged for CCOP(=O)(NC(C)C)Oc1ccc(SC)c(C)c1 (stereo not drawn) in this assay?
Result: label 0

Task: Could you please tell me the result logged for CNC(=O)ON=C(SC)C(=O)N(C)C in this assay?
Result: label 0

###

# Read-out: Bcl-2 (BID) gene, BID (gene 637)
# assay info: LTEA_HepaRG_BID: Life Technologies and Expression Analysis (LTEA) Assay for Bcl-2 (BID) gene using HepaRG (AID 2283476)
# study conditions: mRNA level, 48 h; actives raise or lower the signal
# Experimental: LTEA_HepaRG is a cell based, multiplexed-readout assay that uses HepaRG, a human liver cell line, with measurements taken at 48 hours after chemical dosing on a 96-well plate.LTEA_HepaRG_BID is one of 102 assay component(s) measured in the LTEA HepaRG cell culture assay. It is a marker of Cell proliferation, survival, death.Data from the assay component LTEA_HepaRG_BID was analyzed into 1 endpoint. […]
Active and inactive are the calls of the source. How the source made its calls: active means hit-call score of the fitted dose curve at least 0.9, where 1 is the maximum; inactive means score below 0.9.
assay metric: outcome

CCOP(=S)(OCC)Oc1cc(C)nc(C(C)C)n1	inactive
CCOP(=O)(OCC)Oc1cc(C)nc(C(C)C)n1	inactive
Cc1ccn2nc(S(=O)(=O)Nc3c(F)cccc3F)nc2n1	inactive
CCOP(=S)(OCC)Oc1ccc([N+](=O)[O-])cc1	inactive
CCCCN(CC)c1c([N+](=O)[O-])cc(C(F)(F)F)cc1[N+](=O)[O-]	inactive

Sure, the documented outcome for CCOP(=S)(Oc1cnc(C(C)(C)C)nc1)OC(C)C (stereo unspecified) is inactive

###

# Read-out: Plasminogen activator inhibitor-1 (PAI1), SERPINE1 (gene 5054)
# assay info: BSK_hDFCGF_PAI1: BioMAP Diversity Plus: hDFCGF Assay for Plasminogen activator inhibitor-1 (PAI1) Biomarker Activity (AID 2283066)
# study conditions: primary human foreskin fibroblasts; actives raise or lower the signal
Activity calls are given as the source filed them. How the source made its calls: active means hit-call score of the fitted dose curve at least 0.9, where 1 is the maximum; inactive means score below 0.9.
Select the matching outcome among active, inactive

Before answering, review these 2 worked examples.
COc1cccc(C(=O)NN(C(=O)c2cc(C)cc(C)c2)C(C)(C)C)c1C	inactive
CC(=NC#N)N(C)Cc1ccc(Cl)nc1	inactive

Task: Could you please tell me the result logged for C#CCC1=C(C)C(OC(=O)C2C(C=C(C)C)C2(C)C)CC1=O (stereo not drawn) in this assay?
Result: active

Task: Could you please tell me the result logged for C#CC(C)(C)NC(=O)c1cc(Cl)cc(Cl)c1 in this assay?
Result: inactive

###

# Read-out: Tissue Factor, F3 (gene 2152)
# assay info: BSK_LPS_TissueFactor: BioMAP Diversity Plus: LPS Assay for Tissue Factor Biomarker Activity (AID 2283084)
# study conditions: primary human HUVEC with PBMC; actives raise or lower the signal
Activity calls are given as the source filed them. The calls were made as follows: active = hit-call score of the fitted dose curve at least 0.9, where 1 is the maximum; inactive = score below 0.9.
Select the matching outcome among YES (active), NO (inactive)

Before answering, review these 3 worked examples.
CCOC(=O)COc1cc(-c2nn(C)c(OC(F)F)c2Cl)c(F)cc1Cl	NO
CC(=NC#N)N(C)Cc1ccc(Cl)nc1	NO
CCCOCC(=Nc1ccc(Cl)cc1C(F)(F)F)n1ccnc1	YES

Here is another compound to look at.
Task: Could you please tell me the result logged for CCc1cccc(CC)c1N(COC)C(=O)CCl in this assay?
Result: NO

###

# Read-out: Monocyte Chemoattractant Protein-1 (MCP1), CCL2 (gene 6347)
# assay info: BSK_CASM3C_MCP1: BioMAP Diversity Plus: CASM3C Assay for Monocyte Chemoattractant Protein-1 (MCP1) Biomarker Activity (AID 2283046);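 further: MCP-1 level quantified by ELISA 24 h after dosing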
# study conditions: primary human coronary artery smooth muscle cells; actives raise or lower the signal
Activity calls are given as the source filed them. Rule for the calls: active = hit-call score of the fitted dose curve at least 0.9, where 1 is the maximum; inactive = score below 0.9.
Select the matching outcome among yes (1) (active), no (0) (inactive)

COP(=O)(NC(C)=O)SC (stereo unspecified)	no (0)
CON=C(C(=O)OC)c1ccccc1CON=C(C)c1cccc(C(F)(F)F)c1	yes (1)
CCNc1nc(Cl)nc(NC(C)(C)C#N)n1	no (0)
CCC(CC)Nc1c([N+](=O)[O-])cc(C)c(C)c1[N+](=O)[O-]	no (0)
CCCSP(=O)(OCC)Oc1ccc(Br)cc1Cl (stereo unspecified)	no (0)

Here is another compound to look at.
Task: Could you please tell me the result logged for Nc1nc(N)nc(NC2CC2)n1 in this assay?
Result: no (0)

###

# assay info: Tanguay_ZF_120hpf_CFIN_legacy: (Legacy) Oregon State University Tanguay Lab 120 Hour Post-fertilization zebrafish Assay for Caudal Fin Malformation (AID 2283649)
Records with an inconclusive call do not appear. Active and inactive are the calls of the source. Rule for the calls: active = hit-call score of the fitted dose curve at least 0.9, where 1 is the maximum; inconclusive = response in the unintended direction; inactive = score below 0.9.
Select the matching outcome among T (active), F (inactive)

Before answering, review these 3 worked examples.
C#CCC1=C(C)C(OC(=O)C2C(C=C(C)C)C2(C)C)CC1=O (stereo unspecified)	F
C[N+]1(C)CCCCC1	F
N#CSCSC#N	F

Task: Could you please tell me the result logged for S=C1NCCN1 in this assay?
Result: F

Task: Could you please tell me the result logged for O=c1ccc(=O)[nH][nH]1 in this assay?
Result: F

Task: Could you please tell me the result logged for CNC(=O)ON=C(C)SC in this assay?
Result: F

Task: Could you please tell me the result logged for CC(C)=CC1C(C(=O)OCN2C(=O)C3=C(CCCC3)C2=O)C1(C)C (stereo unspecified) in this assay?
Result: F

Task: Could you please tell me the result logged for CCNc1nc(Cl)nc(NC(C)(C)C#N)n1 in this assay?
Result: F

Task: Could you please tell me the result logged for CCOC(=O)COc1cc(-c2nn(C)c(OC(F)F)c2Cl)c(F)cc1Cl in this assay?
Result: F

Task: Could you please tell me the result logged for CN(C)C(=O)Nc1cccc(C(F)(F)F)c1 in this assay?
Result: F

Task: Could you please tell me the result logged for Nc1c(Cl)cc([N+](=O)[O-])cc1Cl in this assay?
Result: T

Task: Could you please tell me the result logged for CCCOCC(=Nc1ccc(Cl)cc1C(F)(F)F)n1ccnc1 in this assay?
Result: F

Task: Could you please tell me the result logged for CCOP(=S)(OCC)Oc1ccc([N+](=O)[O-])cc1 in this assay?
Result: F

Task: Could you please tell me the result logged for CSc1nc(NC(C)C)nc(NC(C)C)n1 in this assay?
Result: F

Task: Could you please tell me the result logged for CCc1cnc(C2=NC(C)(C(C)C)C(=O)N2)c(C(=O)O)c1 (stereo unspecified) in this assay?
Result: F

Task: Could you please tell me the result logged for Cc1cc(C2CC2)nc(Nc2ccccc2)n1 in this assay?
Result: F
